Hey, just so you know, these numbers are from PubChem BioAssay (NCI).

system: DU-145 prostate; assay: NCI tumour cell line growth inhibition, 48 h

compound | TGI
CCOP(=O)(OCC)C(C)(C)N(C)/C(F)=N/C(F)(F)F | > 100 µM
CC(=O)Nc1ccc(NS(=O)(=O)c2ccc3nc(C)n(NS(=O)(=O)c4ccc(NC(C)=O)cc4)c(=O)c3c2)cc1 | > 100 µM
CC(=O)N1N=C(c2ccc3ccccc3c2O)CC1c1cccs1 (stereo not given) | > 100 µM
CC12OOC(c3ccccc31)c1c2ccc2ccccc12 (stereo not given) | 32.4 µM
CCCCCCCCCCCCCCCCCCNc1ccn(C2OC(COP(=O)(O)OCC3OC(n4cc(C)c(=O)[nH]c4=O)CC3F)C(O)C2O)c(=O)n1 (stereo not given) | 46.2 µM
COc1cc2nc(Nc3cccc(Br)c3)nc(Nc3cccc(Br)c3)c2cc1OC | 34.1 µM
c1ccc2c(c1)NCCC(=NC1CCCCC1)N2 | > 100 µM
CCOC(=O)c1ccccc1OC(=O)NNc1ccccc1 | > 100 µM
Cc1cc(Cl)cc2c(N=Nc3ccc(S(N)(=O)=O)cc3)c(O)[nH]c12 | > 25 µM
COc1ccc(NC(=S)N/N=C\c2ccc(NC(C)=O)cc2)cc1 | > 100 µM
